IC50 values by entry
# experimentalTarget: human T1R2+T1R3 receptor (Homo sapiens)
# Construct: expressed in transfected cells; host or cells: HEK293E
# Sequence (Q7RTX0 21-852): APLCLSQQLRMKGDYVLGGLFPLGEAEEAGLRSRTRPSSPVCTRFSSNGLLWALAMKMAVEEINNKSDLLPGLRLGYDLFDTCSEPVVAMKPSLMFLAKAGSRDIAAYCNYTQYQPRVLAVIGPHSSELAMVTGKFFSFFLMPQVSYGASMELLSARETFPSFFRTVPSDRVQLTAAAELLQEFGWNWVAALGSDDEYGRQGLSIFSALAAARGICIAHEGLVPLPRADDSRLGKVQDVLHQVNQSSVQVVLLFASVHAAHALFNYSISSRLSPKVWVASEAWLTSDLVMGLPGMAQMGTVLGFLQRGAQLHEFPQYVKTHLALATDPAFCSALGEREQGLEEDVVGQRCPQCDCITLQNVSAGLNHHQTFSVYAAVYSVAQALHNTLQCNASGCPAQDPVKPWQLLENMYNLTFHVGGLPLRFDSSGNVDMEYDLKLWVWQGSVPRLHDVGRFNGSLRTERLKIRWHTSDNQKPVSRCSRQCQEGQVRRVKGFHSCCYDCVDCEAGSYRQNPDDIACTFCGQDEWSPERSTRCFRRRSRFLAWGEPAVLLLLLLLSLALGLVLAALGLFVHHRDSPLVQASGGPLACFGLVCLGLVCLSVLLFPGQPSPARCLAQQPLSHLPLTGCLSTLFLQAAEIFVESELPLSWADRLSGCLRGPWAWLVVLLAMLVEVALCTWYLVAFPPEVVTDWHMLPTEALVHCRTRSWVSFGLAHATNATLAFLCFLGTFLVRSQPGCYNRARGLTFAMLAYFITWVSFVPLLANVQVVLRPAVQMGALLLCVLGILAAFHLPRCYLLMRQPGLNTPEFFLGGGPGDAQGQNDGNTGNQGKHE
# Sequence (Q8TE23 20-839 partner): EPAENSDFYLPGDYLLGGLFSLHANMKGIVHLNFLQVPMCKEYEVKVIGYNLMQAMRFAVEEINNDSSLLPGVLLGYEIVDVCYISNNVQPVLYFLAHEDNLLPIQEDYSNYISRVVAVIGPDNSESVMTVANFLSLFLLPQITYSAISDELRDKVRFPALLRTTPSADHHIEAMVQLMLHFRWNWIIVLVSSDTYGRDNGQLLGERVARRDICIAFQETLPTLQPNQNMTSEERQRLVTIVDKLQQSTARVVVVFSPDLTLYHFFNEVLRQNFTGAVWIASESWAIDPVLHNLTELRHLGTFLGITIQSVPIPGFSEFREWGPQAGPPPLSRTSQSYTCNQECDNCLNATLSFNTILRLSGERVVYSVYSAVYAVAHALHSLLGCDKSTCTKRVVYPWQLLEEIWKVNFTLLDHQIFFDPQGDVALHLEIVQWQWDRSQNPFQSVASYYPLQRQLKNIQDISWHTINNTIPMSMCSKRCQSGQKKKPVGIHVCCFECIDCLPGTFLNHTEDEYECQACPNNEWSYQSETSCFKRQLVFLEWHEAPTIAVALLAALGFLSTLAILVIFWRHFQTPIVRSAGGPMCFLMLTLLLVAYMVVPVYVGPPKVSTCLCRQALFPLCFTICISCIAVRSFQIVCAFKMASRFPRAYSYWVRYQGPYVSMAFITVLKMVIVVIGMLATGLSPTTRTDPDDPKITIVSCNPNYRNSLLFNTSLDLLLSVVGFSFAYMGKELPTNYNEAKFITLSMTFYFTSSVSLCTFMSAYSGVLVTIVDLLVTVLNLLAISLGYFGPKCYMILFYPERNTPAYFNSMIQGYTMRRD
# testMethodNotes: Heterologous calcium mobilization assay, HEK293 cells expressing human sweet receptor
# Type: cell-based
# setupConditions: hT1R2+hT1R3 activated by 2.5 mM sucralose; mean (SD), at least 3 independent experiments; read-out: IC50 (μM (SD))

{"compound": "O=C(O)Cc1c[nH]c2ccccc12", "experimentalTarget": "human T1R2+T1R3 receptor (Homo sapiens)", "IC50": "> 1000 µM"}

Shifting focus to the compound that follows.
With human T1R2+T1R3 receptor (Homo sapiens) as the test system, provide measured IC50 for this compound: "O=C(O)CCc1c[nH]c2ccccc12"
> 1000 µM
